- Test system: bedstraw
- assay protocol: Test B pre/postemergence bedstraw
- Format: in vivo, Galium aparine
- run conditions: Preemergence, Rate 500 g/ha; scale of 0 to 10 where 0 is no effect and 10 is complete control
measure name: Bedstraw plant response rating

> print(dat)
                                   compound  measured.result
1  CC(Cl)=CCn1c(=O)on(C(=O)N(c2ccccc2)C(C)C)c1=O [Compound 573]                0
2  CC(C)C(C)n1c(=O)on(C(=O)N(c2ccc(F)cc2F)C(C)C)c1=O (centres unmarked) [Compound 356]                9
3  CC(C)C(C)n1c(=O)on(C(=O)N(c2ccc(F)cc2)C(C)C)c1=O (centres unmarked) [Compound 316]                6
4  CC(C)N(C(=O)n1oc(=O)n(C2CCCCCC2)c1=O)c1ccc(Cl)cc1 [Compound 339]                0
5  CC(=O)C(C)n1c(=O)on(C(=O)N(c2ccccc2)C(C)C)c1=O (centres unmarked) [Compound 576]                0

###

- System: morningglory
- assay protocol: Test B pre/postemergence morningglory
- Format: in vivo, Ipomoea hederacea
- run conditions: Postemergence, Rate 250 g/ha; scale 0 to 10, 0 no effect, 10 complete control
Morningglory plant response rating for assorted compounds
measure name: Morningglory plant response rating

> print(dat)
                            smiles.notation                        measure.name  measured.result
1  CCc1noc(CC)c1-n1c(=O)on(C(=O)N(c2ccc(F)cc2)C(C)C)c1=O  Morningglory plant response rating                1
2  COc1ccc(-n2c(=O)on(C(=O)N(C3=CCOCC3)C(C)C)c2=O)cc1  Morningglory plant response rating                2
3  Cc1ccccc1-n1c(=O)on(C(=O)N(c2ccc(C#N)cc2)C(C)C)c1=O  Morningglory plant response rating                0
4  CC(C)N(C(=O)n1oc(=O)n(-c2cc(Cl)cc(Cl)c2)c1=O)C1=CCOCC1  Morningglory plant response rating                0

###

- Test system: velvetleaf
- assay protocol: Test B pre/postemergence velvetleaf
- Format: in vivo, Abutilon theophrasti
- run conditions: Preemergence, Rate 500 g/ha; scale of 0 to 10 where 0 is no effect and 10 is complete control
Attribute: Velvetleaf plant response rating
measure name: Velvetleaf plant response rating

> print(dat)
                                   compound  measured.result
1  CC(C)N(C(=O)n1oc(=O)n(C2CCCCCC2)c1=O)c1ccc(Cl)cc1                0
2  COC(=O)CCCn1c(=O)on(C(=O)N(c2ccccc2)C(C)C)c1=O                2
3  CC(C)C(C)n1c(=O)on(C(=O)N(c2ccc(F)cc2F)C(C)C)c1=O (centres unmarked)                5
4  CC(C)N(C(=O)n1oc(=O)n(C(C)CCl)c1=O)c1ccc(F)cc1 (centres unmarked)                6
5  CCOCn1c(=O)on(C(=O)N(c2ccccc2)C(C)C)c1=O                7

###

- Tested on: wild oat
- assay protocol: Test B pre/postemergence wild oat
- Type: in vivo, Avena fatua
- run conditions: Preemergence, Rate 125 g/ha; scale of 0 to 10 where 0 is no effect and 10 is complete control
Listed here: items and their measured Wild oats plant response rating.
measure name: Wild oats plant response rating

> print(dat)
                                   compound  measured.result
1  CC(=O)OCC(CCl)n1c(=O)on(C(=O)N(c2ccc(F)cc2)C(C)C)c1=O (stereo not shown) [Compound 596]                0
2  CC(C)N(C(=O)n1oc(=O)n(CCCC#N)c1=O)c1ccc(F)cc1 [Compound 647]                8
3  CC(C)N(C(=O)n1oc(=O)n(CCCCF)c1=O)c1ccccc1 [Compound 581]                0
4  CCC(C)n1c(=O)on(C(=O)N(c2ccc(F)cc2)C(C)C)c1=O (stereo not shown) [Compound 613]                9
5  CCc1nc(C)c(C(C)n2c(=O)on(C(=O)N(c3ccc(F)cc3F)C(C)C)c2=O)s1 (stereo not shown) [Compound 589]                0
6  CC(C)N(C(=O)n1oc(=O)n(CC2CCCCO2)c1=O)c1ccc(F)cc1 (stereo not shown) [Compound 624]                6
7  CC(C)N(C(=O)n1oc(=O)n(CC2=NOCCC2)c1=O)c1ccc(F)cc1 [Compound 601]                8
